Experiment: Plasma pharmacokinetics of esomeprazole and esomeprazole sulfone in goats after IV and SC administration (HPLC, non-compartmental analysis)
Conditions: both, pygmy and pygmy-cross, plasma, iv, 1 mg/kg
reported_metric: AUC(0-inf)
A bare number is not enough; add the unit after it.

Query: What does the record list as AUC(0-inf) for COc1ccc2nc([S@@+]([O-])Cc3ncc(C)c(OC)c3C)[nH]c2c1 ?
Response: 440 ng·h/mL

---

Assay: Plasma pharmacokinetics of esomeprazole and esomeprazole sulfone in goats after IV and SC administration (HPLC, non-compartmental analysis)
Details: both, pygmy and pygmy-cross, plasma, iv, 1 mg/kg, MRTinf, goats, 1 mg/kg IV single dose, median, n = 5
reported_metric: MRT inf (min)
Output spec: scalar in min, unitless text.

Query: Can you share its MRT inf? I mean this compound: COc1ccc2nc([S@@+]([O-])Cc3ncc(C)c(OC)c3C)[nH]c2c1
Response: 8.41

Ref: paper PMC9797722
